Assay: TOR pathway LAP4-GFP level changes – S. cerevisiae, multiplex flow cytometry, primary screen (AID 1873)
Settings: S. cerevisiae LAP4-GFP expression, 3 h, at 10 µM, active compounds read high
Inconclusive results are not listed.
Reported Property: GFP response vs DMSO (%)
Express your answer in %, writing the number without its unit.

Give recorded GFP response vs DMSO. O=C1Cc2ccccc2C(c2ccccc2)N1 (centres undefined)
90.1

Let me know recorded GFP response vs DMSO for COc1cc2c3c(c1)C(C)CC(C)(C)N3C(=O)C2=O (centres undefined) , thanks.
79.2

Please indicate GFP response vs DMSO recorded for C[C@]12CC[C@@H]3c4ccc(O)cc4C(=O)C[C@H]3[C@@H]1CC[C@@H]2O
88

Return value of GFP response vs DMSO for input O=C(NCc1ccc(N2CCCC2=O)cc1)c1ccc(F)cc1 , no commentary.
99.5

Identify the reported GFP response vs DMSO for the following entry. COc1cc(OC)c2c(C)c(Cl)c(=O)oc2c1
113

Recall and state the measured GFP response vs DMSO for O=C(O)C1Cc2ccccc2CN1S(=O)(=O)c1ccccc1 (centres undefined) .
118

Given Cc1cccc(OCC(=O)Nc2ccc(C(=O)NCC(C)C)cc2)c1 , respond with its GFP response vs DMSO.
110

Look up and report measured GFP response vs DMSO for this entry: C1COC(NC(C2CC2)C2CC2)=N1
85.3

Answer with the recorded GFP response vs DMSO of NC(=O)c1cnccn1 only.
110

Please report GFP response vs DMSO for the following molecule: O=C(Nc1ncc2c(n1)CC(c1ccco1)CC2=O)c1ccco1 (centres undefined)
132

Using known records, supply GFP response vs DMSO for CC(C)c1cc(=O)oc2c3c4c(cc12)CCCN4CCC3
78.6

Consider the molecule CCC1(c2ccccc2)NC(=S)N(c2ccc(C)c(C)c2)N1 (centres undefined) and give its recorded GFP response vs DMSO.
108

Tell me its GFP response vs DMSO given O=C(O)c1ccc(-c2ccc(O)c(F)c2)cc1 as the entry.
98

Indicate the recorded GFP response vs DMSO value for this molecule: CCOC(=O)c1cc2c(nc1N)CC(C)(CC)OC2 (centres undefined)
127

Indicate its recorded GFP response vs DMSO; the molecule in question is N/C(=N\OC(=O)CCCOc1ccc(Cl)cc1Cl)c1ccccn1
107

Give reported GFP response vs DMSO value for CC1(C)CC(C(CC(=O)N2CCCC2)Cc2ccccc2)CCO1 (centres undefined)
102

Give the measured GFP response vs DMSO for COCc1cc(=O)[nH]c(/N=C(\N)Nc2ccc(Oc3ccccc3)cc2)n1
109

Please indicate GFP response vs DMSO recorded for COc1ccc2oc(=O)c(C(=O)Nc3ccccc3-c3ccccc3)cc2c1
97.1

Output measured GFP response vs DMSO for this item: CC(C)(Sc1cc(C(C)(C)C)c(O)c(C(C)(C)C)c1)Sc1cc(C(C)(C)C)c(O)c(C(C)(C)C)c1
101

Tell me GFP response vs DMSO reported for O=C(O)Cc1ccc(O)c(F)c1
80.9

Supply GFP response vs DMSO value. Item: COc1ccccc1N1CCN(CC(O)COc2cccc3ccccc23)CC1 (centres undefined)
109

State its GFP response vs DMSO: CSCCC1NC2(C(=O)Nc3ccc(Cl)cc32)[C@@H]2C(=O)N(C3CCCC3)C(=O)[C@H]12 (some centres undefined)
102

Fill in GFP response vs DMSO for record Cc1ccc(C(=O)COC(=O)c2cnccn2)cc1[N+](=O)[O-]
82

Hello, please tell me recorded GFP response vs DMSO for this one: Cc1nc(-c2coc3c(CN(C)C)c(O)ccc3c2=O)cs1
85.8

Reference source for all entries: PubChem BioAssay
